Data credit: the supplement of paper PMC13380429

Test system: HepG2
Experiment: cell viability relative to DMSO; higher = less toxic
Conditions: 72 h; 1 nM
attribute-measured: cell viability (%)

> print(dat)
                                   compound  attribute.measured  measured.value
1  NC(N)=Nc1nc(CSCCN/C=N/S(=O)(=O)c2ccc(Br)cc2)cs1      cell viability            98.2
2  COC(=O)C1=C(C)NC(C)=C(C(=O)OCC(C)C)C1c1ccccc1[N+](=O)[O-] (configuration not stated)      cell viability             100
3  NCC(O)c1ccc(O)cc1 (configuration not stated)      cell viability            91.7
4  COc1cccc(OCCCN)c1-c1cc(Nc2cnc(C#N)cn2)n[nH]1      cell viability            97.4
5  N[C@@H]1CCCN(c2c(/C=C3\SC(=O)NC3=O)cccc2-c2ccccc2)C1      cell viability            92.6
6  C[N+](C)(C)[C@@H](Cc1c[nH]c(=S)[nH]1)C(=O)O      cell viability            83.4
7  CC(=O)N(CC(O)CO)c1c(I)c(C(=O)NCCO)c(I)c(C(=O)NCC(O)CO)c1I (configuration not stated)      cell viability             105
